Tested on: A498
Experiment: NCI tumour cell line growth inhibition, 48 h
Calls of active or inactive are those of the source. Rule as the data show it: active = GI50 up to about 1.1 µM and inactive = higher.
Listing of entries alongside the reported GI50.

These solved cases illustrate the format of a correct answer.
| MOLECULE | OBSERVED VALUE |
| --- | --- |
| COc1ccc(/C=C/C(=O)c2ccc(OC(=O)/C=C/c3ccccc3)cc2)cc1 | 25.1 µM (inactive) |
| COC(=O)Cc1c([C@@]2(C)CCCC(C)(C)C2)ccc2c1C(=O)OC2 | 25.5 µM (inactive) |
| Cc1nc2ccccc2c(=O)n1Nc1ccc(C(=O)O)cc1 | > 100 µM (inactive) |
| CCN(c1ccccc1)[C@H]1C(=O)N(c2ccc([N+](=O)[O-])cc2)[C@H]1c1ccc(OC)cc1 | 80.7 µM (inactive) |
| CCOC(=O)c1cc(C2(OC)CCN(Cc3ccccc3)C2=O)c(-c2cc(C)no2)[nH]1 (centres undefined) | > 100 µM (inactive) |
| C=CC[C@]12C=C(OC)[C@@H](O)[C@](OC)(C(c3cc(OC)c4c(c3)OCO4)[C@H]1C)[C@H]2OC(C)=O (some centres undefined) | > 100 µM (inactive) |
| C=CCCCC1CCCNC1=O (centres undefined) | > 100 µM (inactive) |
| COC(=O)c1ccc2c(c1)sc1nc(-c3ccc(OC)cc3)cn12 | > 100 µM (inactive) |

Return the recorded GI50 value; entry: Cc1cn(C2CCC(/C=N\O)O2)c(=O)[nH]c1=O (centres undefined)
> 100 µM (inactive)

Tell me measured GI50 for CC(=O)OCC(OC(C)=O)C(OC(C)=O)C(/C=N/N(C(C)=O)S(=O)(=O)c1ccc(/C=C2\NC(=O)NC2=O)cc1)OC(C)=O (centres undefined) please.
> 100 µM (inactive)

For the molecule "CC(=O)NS(=O)(=O)c1ccc(NCc2cccc3c(=O)c4ccc(Cl)cc4oc23)cc1" , give its reported GI50.
41.9 µM (inactive)

Given "Cn1ccnc1Sc1ccc(/C=N/c2ccc3nc(SCC(=O)NC4CCCCC4)sc3c2)cc1[N+](=O)[O-]" , respond with its GI50.
14.6 µM (inactive)

###

System: SW-620
Assay: NCI tumour cell line growth inhibition, 48 h
Calls of active or inactive are those of the source. Rule as the data show it: active = GI50 up to about 1.1 µM and inactive = higher. Where a SMILES comes first, the peptide text is derived from it. [ ]: non-standard residue; d: D form. The star is where a group is joined. Hyp = O=C(O)[CH]1C[CH](O)CN1; Cbz = O=C(OCc1ccccc1)*
Please answer using one outcome listed in active, inactive

Example cases with answers are listed next.
| MOLECULE | ASSIGNED CATEGORY |
| --- | --- |
| CC(C)CCC[C@@H](C)C1CCC2[C@@H]3CC=C4C[C@@H](C(=O)NCCN(C)C)CC[C@]4(C)C3CC[C@@]21C (stereo not given in full) | inactive |
| NC(=O)CNC(=O)C1CC(O)CN1C(=O)C1CCCN1C(=O)OCc1ccccc1 (stereo not drawn) (Cbz-Pro-[Hyp]-Gly-NH2; configuration not given here) | inactive |
| N#C/N=C(\NCCc1c[nH]c2ccccc12)NCc1ccccc1 | inactive |
| Cc1cn(C2CCC(/C=N\O)O2)c(=O)[nH]c1=O (stereo not given) | inactive |
| O=C(NN1C(=O)C(Cl)C1c1ccccc1O)c1ccccc1O (stereo not given) | inactive |

Now consider a different molecule.
For "CCOc1ccc(NCc2cc(OC)c(OC)c(OC)c2)cc1" , what call appears in the results of this test?
active

###

GI50 reference
System: SK-OV-3
Assay: NCI tumour cell line growth inhibition, 48 h
The source made the active and inactive calls. Rule as the data show it: active = GI50 up to about 1.1 µM and inactive = higher. Where a SMILES comes first, the peptide text is derived from it. The star is where a group is joined. Boc = CC(C)(C)OC(=O)*

| COMPOUND | GI50 |
| --- | --- |
| Cc1nnc(Sc2nc(C#N)c(C#N)nc2Sc2nnc(C)s2)s1 | 17.2 µM (inactive) |
| COC(=O)C1CC(C=[N+](C)C)=C(SC)N1C(=O)OCc1ccccc1 (stereo not drawn) | > 100 µM (inactive) |
| CCCCCCCCCCNC(=S)OCCCC | 30 µM (inactive) |
| O=[N+]([O-])c1cccc(/N=N/c2c(O)ccc3ccccc23)c1 | 35.2 µM (inactive) |
| Cc1cc2c3c(coc3c1-c1c(C)cc3c4c(coc14)C(=O)C(O)=C3C(C)C)C(=O)C(O)=C2C(C)C | 19.2 µM (inactive) |
| O=C(NCCN1CCCCC1)c1ccc(I)cc1 | > 100 µM (inactive) |

Identify the reported GI50 for the following entry. "COc1cc(O)c2c(=O)c(OC)c(-c3ccc4c(c3)OCO4)oc2c1OC"
21.7 µM (inactive)

Quote GI50 reported for CC(=O)OC1CC2C(C)(C)C(=O)C=C[C@]2(C)C2CCC3(C)C(c4ccoc4)C(=O)[C@H]4O[C@]43[C@]12C (stereo partly drawn) please.
> 100 µM (inactive)

For the compound Cc1ccc([S+]([O-])CC(CF)OCn2cc(C)c(=O)[nH]c2=O)cc1 (stereo not drawn) , give its reported GI50.
> 100 µM (inactive)

Provide one value: measured GI50 of CC(C)(C)OC(=O)NC(Cc1ccccc1)C(=O)N1CCCC1C(N)=O (stereo not drawn) (Boc-Phe-Pro-NH2; configuration not given here)
> 100 µM (inactive)

Give the reported GI50 for this compound. "CCCCc1ccc(Nc2nc(S)c3[nH]cnc3n2)cc1"
> 10 µM (inactive)

Fill in GI50 for record "Cc1c(/C=N/NC(=S)N2CCCCC2)c(=O)n(-c2ccccc2)n1C"
68.1 µM (inactive)

Provide GI50 value for the following compound: COc1ccc2c(c1OC)C(=O)O[C@@H]2[C@H]1c2c(cc3c(c2OC)OCO3)CCN1C [NOSCAPINE]
73.1 µM (inactive)

Look up and report measured GI50 for this entry: "O=c1cc(O)cc2n1CCC2"
> 100 µM (inactive)

###

System: NCI-H226
Experiment: NCI tumour cell line growth inhibition, 48 h
The source made the active and inactive calls. No stated cut-off is given here; in the data, active = GI50 up to about 1.1 µM and inactive = higher.
Reported GI50 is given for each of the following compounds.

| COMPOUND | OBSERVABLE | OBSERVED VALUE |
| --- | --- | --- |
| Cc1ccc(C(=O)Nc2ccc(S(=O)(=O)O)c3cc(S(=O)(=O)O)cc(S(=O)(=O)O)c23)cc1NC(=O)c1cccc(N)c1 | GI50 | > 100 µM (inactive) |

State its GI50: "N#Cc1c(-c2ccc([N+](=O)[O-])cc2)cc(-c2ccc(Nc3ccnc4cc(Cl)ccc34)cc2)nc1N"
> 72.1 µM (inactive)

Respond only with GI50 recorded for "O=C(N/N=C/c1cccc(O)c1O)N/N=C/c1cccc(O)c1O"
23.4 µM (inactive)

In one line, give reported GI50 of the entry "CN(C)C(=S)/N=c1\ss/c(=N/c2ccccc2)n1C" .
> 100 µM (inactive)

Give me measured GI50, please, for this compound: COc1ccc(/C(=N\NC(=O)C(=O)NN)C(c2ccc(OC)cc2)C2(O)C(=O)Nc3ccccc32)cc1 (stereo unspecified)
> 100 µM (inactive)

Report GI50 for "N#C/C(=C(/S)Nc1ccccc1)c1nc2ccccc2[nH]1"
> 10 µM (inactive)

###

Tested on: DMS-114
Assay: NCI tumour cell line growth inhibition, 48 h
Active and inactive are the calls of the source. No stated cut-off is given here; in the data, active = GI50 up to about 1.1 µM and inactive = higher.
Entries and their measured GI50 follow.

| MOLECULE | OBSERVABLE | OBSERVED VALUE |
| --- | --- | --- |
| O=C1C(Br)=CC2([N+](=O)[O-])CCNC3=C(C4=NCCc5c[nH]c(c54)C3=O)C2=C1Br (stereo not given) | GI50 | 0.163 µM (active) |
| O=C(c1ccccc1)c1nc2ccc(Cl)cc2c2c1CCCO2 | GI50 | > 100 µM (inactive) |
| COc1cccc(NC(=O)CSc2nnc(-c3ccc(NC(C)=O)cc3)o2)c1 | GI50 | > 100 µM (inactive) |
| O=C(O)CCC1CCc2cccc(O)c2C1=O (stereo not given) | GI50 | > 100 µM (inactive) |
| CCN1N=CSC12C(=O)N(c1ccccc1)C(=O)N2c1ccccc1 (stereo not given) | GI50 | 57.8 µM (inactive) |

Note GI50 for the molecule shown: "CN(C)C(=S)/N=c1\ss/c(=N/c2ccccc2)n1C"
77.1 µM (inactive)

###

System: T47D
Assay: NCI tumour cell line growth inhibition, 48 h
Activity calls are given as the source filed them. No stated cut-off is given here; in the data, active = GI50 up to about 1.1 µM and inactive = higher.
Select the matching outcome among active, inactive

As a guide, the following entries are already answered.
| COMPOUND | ASSIGNED CATEGORY |
| --- | --- |
| CCN(CC)c1ccc2cc(C(=O)NCc3ccccc3)c(=N)oc2c1 | inactive |
| NC(CCCCNC(=O)OCc1ccccc1)C(=O)NC(CCCCNC(=O)OCc1ccccc1)C(=O)ON1C(=O)CCC1=O (stereo unspecified) | inactive |

Test call, this compound: "COc1cc2c(cc1OCCN1C(=O)c3cccc4cccc(c34)C1=O)N=C[C@@H]1CCCN1C2=O"
inactive

Returns: the outcome recorded for "COc1ccc(OC)c([N+](=O)[O-])c1-c1nc2sc(Cl)cn2c1/C=N/N=C(N)N" in this assay.
inactive

Please indicate how the test categorized "O=C1Cc2c([nH]c3ccc(Br)cc23)-c2cc(O)c(O)cc2N1" .
inactive

Dear colleague, could you share the recorded outcome for "O=C(CSc1nnc(-c2ccccn2)s1)N/N=C/c1ccccc1" when you have a moment?
inactive

Fill in: this test's call for "c1cc(-c2sc(-c3ccncc3)c(-c3ccncc3)c2-c2ccncc2)ccn1" is ___
inactive
